System: IGROV1 complex spheroids (HUVEC, MSC), viability % test/control
Assay: Anticancer human tumor IGROV1 cell line growth inhibition [GQUAD];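 further: spheroids exposed to compounds for 7 days before readout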
Conditions: curve of first compound; second compound 0.0316 µM
pIC50: −log10 of the molar value.
Property: pIC50; scope: individual molecules
recorded.metric: pIC50

molecule="CC(C)n1c(=O)n(C)c2cnc3cc(F)c(-c4ccc(OCCCN5CCCCC5)nc4)cc3c21 + Cc1cnc(CNC(=O)c2c(=O)c3ccc(N4CCCN(C)CC4)nc3n3c2sc2ccccc23)cn1" result="> 7.50"
molecule="Nc1ccn(C2OC(CO)C(O)C2(F)F)c(=O)n1 (stereo not given) + Cc1[nH]c2ccc(F)cc2c1-c1nc2c3cccnc3c3ncccc3c2[nH]1" result="> 7.50"
molecule="CCc1c2c(nc3ccc(O)cc13)-c1cc3c(c(=O)n1C2)COC(=O)[C@]3(O)CC + Cc1cnc(CNC(=O)c2c(=O)c3ccc(N4CCCN(C)CC4)nc3n3c2sc2ccccc23)cn1" result="> 9.00"
molecule="C#Cc1c(F)ccc2cc(O)cc(-c3ncc4c(N5CC6CCC(C5)N6)nc(OCC56CCCN5CC(F)C6)nc4c3F)c12 (stereo not given) + Cc1cnc(CNC(=O)c2c(=O)c3ccc(N4CCCN(C)CC4)nc3n3c2sc2ccccc23)cn1" result=5.55
molecule="Cc1cccc(N(C)C(=O)C2C(O)CCN2c2nc(C)cc(C(F)(F)F)c2C#N)c1 (stereo not given) + CN(C)c1ccc(Nc2c3ccc(NC(=O)CCN4CCCC4)cc3nc3cc(NC(=O)CCN4CCCC4)ccc23)cc1" result="< 5.00"

* * *

Tested on: IGROV1 complex spheroids (HUVEC, MSC), viability % test/control
Assay: Anticancer human tumor IGROV1 cell line growth inhibition [GQUAD]; active = viability on the fitted dose curve at most 10% of control; inactive = the rest;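 further: spheroids exposed to compounds for 7 days before readout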
Details: second compound 1 µM; first compound 0.316 µM
Classes used: Yes = active, No = inactive

compound="O=C(c1cc(Cc2n[nH]c(=O)c3ccccc23)ccc1F)N1CCN(C(=O)C2CC2)CC1 + Cc1[nH]c2ccc(F)cc2c1-c1nc2c3cccnc3c3ncccc3c2[nH]1" qualitative_label=Yes
compound="CC[C@@]1(O)C(=O)OCc2c1cc1n(c2=O)Cc2cc3c(CN(C)C)c(O)ccc3nc2-1 + CN(C)c1ccc(Nc2c3ccc(NC(=O)CCN4CCCC4)cc3nc3cc(NC(=O)CCN4CCCC4)ccc23)cc1" qualitative_label=Yes
compound="Cc1cccc(N(C)C(=O)C2C(O)CCN2c2nc(C)cc(C(F)(F)F)c2C#N)c1 (stereo not drawn) + CN(C)c1ccc(Nc2c3ccc(NC(=O)CCN4CCCC4)cc3nc3cc(NC(=O)CCN4CCCC4)ccc23)cc1" qualitative_label=No

* * *

Tested on: IGROV1 complex spheroids (HUVEC, MSC), viability % test/control
Test: Anticancer human tumor IGROV1 cell line growth inhibition [GQUAD];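 further: spheroids exposed to compounds for 7 days before readout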;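 on viability, T/C: 100% = DMSO vehicle control viability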
Settings: second compound 10 µM; first compound 0.316 µM; stronger effect = lower value
Property: viability, T/C; scope: individual molecules
recorded.metric: viability, T/C (%)

molecule="CC[C@@]1(O)C(=O)OCc2c1cc1n(c2=O)Cc2cc3c(CN(C)C)c(O)ccc3nc2-1 + CN(C)c1ccc(Nc2c3ccc(NC(=O)CCN4CCCC4)cc3nc3cc(NC(=O)CCN4CCCC4)ccc23)cc1" recorded_metric="viability, T/C" quantitative_readout=6.49
molecule="CC1COCCN1c1cc(C2(S(C)(=N)=O)CC2)nc(-c2ccnc3[nH]ccc23)n1 (stereo not drawn) + Cc1[nH]c2ccc(F)cc2c1-c1nc2c3cccnc3c3ncccc3c2[nH]1" recorded_metric="viability, T/C" quantitative_readout=5.04
molecule="O=C(NO)c1cnc(N2CCN(S(=O)(=O)c3ccc4ccccc4c3)CC2)nc1 + Cc1cnc(CNC(=O)c2c(=O)c3ccc(N4CCCN(C)CC4)nc3n3c2sc2ccccc23)cn1" recorded_metric="viability, T/C" quantitative_readout=0.09
